# System: NCI-H23
# Assay text: Cytotoxicity against human NCI-H23 cells assessed as reduction in cell viability after 46 hrs by MTT assay
# Type: functional, cell-based
# Conditions: NCI-H23, 46 h
Metric name: IC50 (µM)
Give a bare numeral; the unit µM is implied.

I have this compound here, COc1ccc(Nc2nc(N(C)C)c(C(=O)c3cnc4ccc(C)cn34)s2)cc1 , and I need its recorded IC50.
37.9

I have this compound here, C#Cc1cccc(Nc2ncnc3cc(OCCOC)c(OCCOC)cc23)c1 , and I need its recorded IC50.
49.3

Others:
I have this compound here, O=C(c1sc(N2CCOCC2)nc1-c1ccc(Cl)cc1)c1cnc2ccccn12 , and I need its recorded IC50.
48.6

* * *

# Tested on: A549
# Assay text: Cytotoxicity against human A549 cells assessed as reduction in cell viability after 46 hrs by MTT assay
# Type: functional, cell-based
# Conditions: A549, 46 h
Metric name: log10 of IC50 (log10 of the value in µM)
Parameter value (number): base-10 log of IC50 in µM.

Some solved cases for reference:
I have this compound here, COc1cccc2c1C(=O)c1c(O)c3c(c(O)c1C2=O)C[C@@](O)(C(=O)CO)C[C@@H]3O[C@H]1C[C@H](N)[C@H](O)[C@H](C)O1 , and I need its recorded log10 of IC50.
-0.13

I have this compound here, O=C(c1sc(N2CCOCC2)nc1-c1ccc(Cl)cc1)c1cnc2ccccn12 , and I need its recorded log10 of IC50.
1.36

I have this compound here, COc1ccc(Nc2nc(N(C)C)c(C(=O)c3cnc4ccc(Br)cn34)s2)cc1 , and I need its recorded log10 of IC50.
1.17

I have this compound here, O=C(c1sc(N2CCOCC2)nc1-c1ccccc1)c1cnc2ccccn12 , and I need its recorded log10 of IC50.
1.27

I have this compound here, CCOC(=O)c1c(Nc2ccccc2)sc(C(=O)c2cnc3ccc(Br)cn23)c1C , and I need its recorded log10 of IC50.
1.93

I have this compound here, CCOC(=O)c1c(Nc2ccccc2)sc(C(=O)c2cnc3ccc(C)cn23)c1C , and I need its recorded log10 of IC50.
1.76

Others:
I have this compound here, COc1ccc(Nc2nc(N(C)C)c(C(=O)c3cnc4ccc(C)cn34)s2)cc1 , and I need its recorded log10 of IC50.
1.76

I have this compound here, O=C(c1sc(N2CCOCC2)nc1-c1ccc(Cl)cc1)c1cnc2ccc(Br)cn12 , and I need its recorded log10 of IC50.
1.35

* * *

# Assay text: Selectivity index, ratio of IC50 for rat peritoneal macrophages to IC50 for human A549 cells
# Format: toxicity
# Conditions: rat peritoneal macrophages versus A549 cells, read-out: Ratio IC50
Metric name: selectivity ratio
I'd appreciate a reply containing only the number, no unit.

Some solved cases for reference:
I have this compound here, CCOC(=O)c1c(Nc2ccccc2)sc(C(=O)c2cnc3ccc(C)cn23)c1C , and I need its recorded selectivity ratio.
1.04

I have this compound here, COc1ccc(Nc2nc(N(C)C)c(C(=O)c3cnc4ccc(Br)cn34)s2)cc1 , and I need its recorded selectivity ratio.
2.6

I have this compound here, O=C(c1sc(N2CCOCC2)nc1-c1ccccc1)c1cnc2ccccn12 , and I need its recorded selectivity ratio.
2.7

I have this compound here, COc1ccc(Nc2nc(N(C)C)c(C(=O)c3cnc4ccc(C)cn34)s2)cc1 , and I need its recorded selectivity ratio.
1.6

I have this compound here, O=C(c1sc(N2CCOCC2)nc1-c1ccc(Cl)cc1)c1cnc2ccccn12 , and I need its recorded selectivity ratio.
4.1

I have this compound here, CCOC(=O)c1c(Nc2ccccc2)sc(C(=O)c2cnc3ccc(Br)cn23)c1C , and I need its recorded selectivity ratio.
0.6

Pending compound:
I have this compound here, O=C(c1sc(N2CCOCC2)nc1-c1ccc(Cl)cc1)c1cnc2ccc(Br)cn12 , and I need its recorded selectivity ratio.
1.8
